The reported measurements were obtained from ChEMBL document CHEMBL1773054.

assay: Inhibition of EthR in Mycobacterium tuberculosis H37Rv expressing GFP infected in mouse RAW264.7 cells assessed as concentration required to ethionamide-induced 50% inhibition of bacterial growth after 5 days by microscopic analysis; assay type: cell-based; details: RAW264.7, 120 h
measure: pEC50
Give only the number. pEC50 is defined as minus log10 of concentration in molar units.

Input: Quick check: pEC50 of O=C(CCC1CCCCC1)N1CCC(c2nc(-c3cccs3)no2)CC1 ?
Output: 5.74

Input: Tell me the measured pEC50 of O=C(CCC(F)(F)F)N1CC[C@H](c2nc(-c3cccs3)no2)C1 , please.
Output: 5.80

Input: Fill blank: measured pEC50 of the molecule O=C(CC1CCCC1)N1CCC(c2nc(-c3cccs3)no2)CC1 is ____.
Output: 6.40

Input: I am curious: what pEC50 value has been reported for O=C(CC1CC1)N1CCC(c2nc(-c3cccs3)no2)CC1 ?
Output: 6.70

----------
assay: Inhibition of EthR in Mycobacterium tuberculosis H37Rv expressing GFP infected in mouse RAW264.7 cells assessed as concentration required to ethionamide-induced 50% inhibition of bacterial growth after 5 days by microscopic analysis; assay type: cell-based; conditions: RAW264.7, 120 h
pEC50: −log10 of the molar value.
measure: pEC50

Input: State the recorded pEC50 for this entry: O=C(Cc1ccccc1Cl)N1CCC(c2nc(-c3cccs3)no2)CC1
Output: < 5.30

Input: Item CC1CCC(CC(=O)N2CCC(c3nc(-c4cccs4)no3)CC2)CC1 (stereo unspecified) has what recorded pEC50?
Output: < 5.30

Input: Which pEC50 is listed for O=C(Cc1ccc(Cl)cc1)N1CCC(c2nc(-c3cccs3)no2)CC1 ?
Output: 5.66

Input: Would you mind telling me what pEC50 value was observed for CC(C)(C)CC(=O)N1CCC(c2nc(-c3cccs3)no2)CC1 ?
Output: < 5.30

Input: Sample O=C(Cc1ccc(F)cc1)N1CCC(c2nc(-c3cccs3)no2)CC1 — what was its pEC50?
Output: 6.10

Input: Looking for the measured pEC50 of Cc1ccc(CC(=O)N2CCC(c3nc(-c4cccs4)no3)CC2)cc1 , can you help?
Output: < 5.30
